Values were extracted from patent US20170202783A1.

- experiment-description: Solubility of curcumin in water
- Format: physicochemical
- assay-conditions: thermodynamic from solid
reported-property: solubility

COc1cc(/C=C/C(=O)CC(=O)/C=C/c2ccc(O)c(OC)c2)ccc1O | < 100 µg/mL
